# targetEntity: MLKL (Homo sapiens, UniProt Q8NB16)
# Sequence (Q8NB16 whole entry): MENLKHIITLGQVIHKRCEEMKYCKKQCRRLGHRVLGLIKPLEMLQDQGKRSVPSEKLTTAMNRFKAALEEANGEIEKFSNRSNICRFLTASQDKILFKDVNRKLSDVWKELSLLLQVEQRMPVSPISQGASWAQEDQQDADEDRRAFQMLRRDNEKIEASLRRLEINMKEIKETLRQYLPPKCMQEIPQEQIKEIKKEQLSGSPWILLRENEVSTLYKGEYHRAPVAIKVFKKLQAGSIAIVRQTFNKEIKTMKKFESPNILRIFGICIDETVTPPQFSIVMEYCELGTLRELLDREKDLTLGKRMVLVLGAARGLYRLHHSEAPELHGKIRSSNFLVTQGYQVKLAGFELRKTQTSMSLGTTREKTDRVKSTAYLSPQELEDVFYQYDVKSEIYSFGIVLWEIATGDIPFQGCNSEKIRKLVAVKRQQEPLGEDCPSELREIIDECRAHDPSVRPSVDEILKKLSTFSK
# methodSummary: MLKL degradation assay in HepG2 cell line (western blot)
# Type: cell-based
# Design: endogenous in cells; host or cells: HepG2 or HaCaT
# setupConditions: compound 1 μM; cell line not given
# Experimental: MLKL degradation ability was evaluated in the following method. […] For protein preparation after incubation, cells were washed with 1×TBST, and 60 μL of RIPA lysis buffer containing Halt™ Protease and Phosphatase Inhibitor Cocktail was dispensed into each well. […] For protein quantification, after dispensing sample and BCA (0-4 mg/ml) in a 96 well plate, 100 μL of BCA was dispensed and reacted in a 37° C. incubator for 30 minutes. […]
In this section, each of the compounds is paired with its reported Degradation assay (Degradation %) 1 μM.

[
  {
    "compound": "Nc1ncc(-c2cnn(C3CCN(CCCN4CC5CN(C(=O)CNc6ccc7c(c6)C(=O)N(C6CCC(=O)NC6=O)C7=O)CC5C4)CC3)c2)nc1C(=O)O[C@@H](C(=O)Nc1ccc(F)cc1)c1ccccc1 (stereo partly shown)",
    "valueUnits": "%",
    "Degradation assay (Degradation %) 1 μM": 93.95
  },
  {
    "compound": "COc1ccc(C(=O)N2CCC(CN3CCN(CCCN4CCC(n5cc(-c6cnc(N)c(C(=O)O[C@@H](C(=O)Nc7ccc(F)cc7)c7ccccc7)n6)cn5)CC4)CC3)CC2)cc1N1CCC(=O)NC1=O",
    "valueUnits": "%",
    "Degradation assay (Degradation %) 1 μM": 89.29
  },
  {
    "compound": "Nc1ncc(-c2cnn(C3CCN(CC4CCN(C5=CC(=O)N(C6CCC(=O)NC6=O)C5=O)CC4)CC3)c2)nc1C(=O)O[C@@H](C(=O)Nc1ccc(F)cc1)c1ccccc1 (stereo partly shown)",
    "valueUnits": "%",
    "Degradation assay (Degradation %) 1 μM": 91.54
  },
  {
    "compound": "Nc1ncc(-c2cnn(C3CCN(CCOC4CCN(C(=O)C5CN(C6=CC(=O)N(C7CCC(=O)NC7=O)C6=O)C5)CC4)CC3)c2)nc1C(=O)O[C@@H](C(=O)Nc1ccc(F)cc1)c1ccccc1 (stereo partly shown)",
    "valueUnits": "%",
    "Degradation assay (Degradation %) 1 μM": 78.24
  },
  {
    "compound": "Nc1ncc(-c2cnn(C3CCN(CCC4CCN(C(=O)C5CN(c6ccc7nnn(C8CCC(=O)NC8=O)c(=O)c7c6)C5)CC4)CC3)c2)nc1C(=O)OC(C(=O)Nc1ccc(F)cc1)c1ccccc1 (stereo not shown)",
    "valueUnits": "%",
    "Degradation assay (Degradation %) 1 μM": 70.94
  },
  {
    "compound": "Nc1ncc(-c2cnn(C3CCN(C[C@H]4CC[C@H](CNC(=O)C5CCN(c6ccc7c(c6)C(=O)N(C6CCC(=O)NC6=O)C7=O)CC5)CC4)CC3)c2)nc1C(=O)O[C@@H](C(=O)Nc1ccc(F)cc1)c1ccccc1 (stereo partly shown)",
    "valueUnits": "%",
    "Degradation assay (Degradation %) 1 μM": 86.13
  },
  {
    "compound": "Cn1c(=O)n(C2CCC(=O)NC2=O)c2ccc(N3CCC(C(=O)N4CCN(CCCN5CCC(n6cc(-c7cnc(N)c(C(=O)O[C@@H](C(=O)Nc8ccc(F)cc8)c8ccccc8)n7)cn6)CC5)CC4)CC3)cc21 (stereo partly shown)",
    "valueUnits": "%",
    "Degradation assay (Degradation %) 1 μM": 81.44
  },
  {
    "compound": "Nc1ncc(-c2cnn(C3CCN(CCOCCNC(=O)CNc4ccc5c(c4)C(=O)N(C4CCC(=O)NC4=O)C5=O)CC3)c2)nc1C(=O)O[C@@H](C(=O)Nc1ccc(F)cc1)c1ccccc1 (stereo partly shown)",
    "valueUnits": "%",
    "Degradation assay (Degradation %) 1 μM": 30.1
  },
  {
    "compound": "Nc1ncc(-c2cnn(C3CCN(C(=O)COCCOCCNC(=O)C4CCN(c5cccc6c5C(=O)N(C5CCC(=O)NC5=O)C6=O)CC4)CC3)c2)nc1C(=O)O[C@@H](C(=O)Nc1ccc(F)cc1)c1ccccc1 (stereo partly shown)",
    "valueUnits": "%",
    "Degradation assay (Degradation %) 1 μM": 33.12
  },
  {
    "compound": "Nc1ncc(-c2cnn([C@@H]3CCN(CC4CCN(C(=O)COc5cccc6c5C(=O)N(C5CCC(=O)NC5=O)C6=O)CC4)C3)c2)nc1C(=O)OC(C(=O)Nc1ccc(F)cc1)c1ccccc1 (stereo partly shown)",
    "valueUnits": "%",
    "Degradation assay (Degradation %) 1 μM": 75.04
  }
]
